- Tested on: Key Broadleaf Weed and Crop Species
- PROTOCOL TEXT: Post-Emergent Test II: postemergent herbicidal activity, visual rating after 14 d (Table 7)
- Type: in vivo
- CONDITION PARAMETERS: post-emergence, 336 h, sunflower (Helianthus annuus), 140 g ai/ha, read-out: Visual Growth Reduction (%) 14 Days After Application HELAN
# pest or weed control at 140 g/ha per record follows

[[record]]
structure_smiles_string = "Nc1c(F)c(-c2ccc(Br)c3c2OC(F)(F)O3)nc(C(=O)O)c1Cl"
result = "85 to 94%"

[[record]]
structure_smiles_string = "COC(=O)c1nc(-c2cc3c(cc2F)OC(F)(F)O3)cc(N)c1Cl"
result = "75 to 84%"


Which pest or weed control at 140 g/ha is reported for this compound? `Nc1c(F)c(-c2ccc3c(c2F)OC(F)(F)O3)nc(C(=O)O)c1Cl`
95 to 100%

GET /values?readout=pest or weed control at 140 g/ha&item= `COC(=O)c1nc(-c2cc3c(cc2F)OCO3)nc(N)c1OC`
60 to 74%

// lookup pest or weed control at 140 g/ha for `CC1(C)Oc2ccc(-c3nc(C(=O)O)c(Cl)c(N)c3F)cc2O1`
30 to 44%

Entry `COC(=O)c1nc(-c2ccc3c(c2)OC(F)(F)O3)c(F)c(N)c1OC` : reported pest or weed control at 140 g/ha = ?
0 to 29%

Bench note: what pest or weed control at 140 g/ha did `COC(=O)c1nc(-c2cc(F)c3c(c2)OC(F)(F)O3)c(F)c(N)c1Cl` show?
0 to 29%

If you can, please state the reported pest or weed control at 140 g/ha value of `C=Cc1c(C(=O)OC)nc(-c2cc3c(cc2F)OC(F)(F)O3)c(F)c1N` .
85 to 94%

Request the reported pest or weed control at 140 g/ha associated with `COC(=O)c1nc(-c2cc3c(cc2F)OCO3)cc(N)c1Cl`
75 to 84%

// query pest or weed control at 140 g/ha value for entry `COc1c(C(=O)O)nc(-c2cc3c(cc2F)OC(F)(F)O3)c(F)c1N`
85 to 94%

Value lookup for pest or weed control at 140 g/ha; key = `COC(=O)c1nc(-c2ccc(Br)c3c2OC(F)(F)O3)c(F)c(N)c1Cl`
95 to 100%

Would you kindly share the measured pest or weed control at 140 g/ha for `COC(=O)c1nc(-c2ccc3c(c2)OC(F)(F)O3)nc(N)c1Cl` ?
75 to 84%

# pest or weed control at 140 g/ha lookup, item `COC(=O)c1nc(-c2ccc3c(c2)OC(F)(F)O3)c(F)c(N)c1Cl`
95 to 100%

Look up pest or weed control at 140 g/ha for this compound: `Nc1nc(-c2ccc3c(c2)OC(F)(F)O3)nc(C(=O)O)c1Cl`
75 to 84%

Report pest or weed control at 140 g/ha for `COC(=O)c1nc(-c2cc3c(cc2OC)OC(F)(F)O3)cc(N)c1Cl` please.
60 to 74%

Returns the measured pest or weed control at 140 g/ha for the input compound. Input: `COC(=O)c1nc(-c2ccc(I)c3c2OC(F)(F)O3)c(F)c(N)c1Cl`
85 to 94%

GET /values?readout=pest or weed control at 140 g/ha&item= `Nc1cc(-c2cc3c(cc2F)OC(F)(F)O3)nc(C(=O)O)c1Cl`
75 to 84%

# pest or weed control at 140 g/ha lookup, item `COC(=O)c1nc(-c2cc3c(cc2F)OC(F)(F)O3)c(F)c(N)c1F`
60 to 74%

---

Let's look at some compounds and their measured pest or weed control at 140 g/ha.
- Tested on: Key Grass and Sedge Weeds as well as Grass Crops
- PROTOCOL TEXT: Post-Emergent Test II: postemergent herbicidal activity, visual rating after 14 d (Table 8)
- Assay type: in vivo
- CONDITION PARAMETERS: post-emergence, 336 h, barnyardgrass (Echinochloa crus-galli), 140 g ai/ha, read-out: Visual Growth Reduction (%) 14 Days After Application, ECHCG

Would you please look over these solved cases?
[[record]]
structure_smiles_string = "COC(=O)c1nc(-c2ccc3c(c2)OCC3)c(F)c(N)c1Cl"
readout_name = "pest or weed control at 140 g/ha"
result = "85 to 94%"

[[record]]
structure_smiles_string = "COC(=O)c1nc(-c2c(F)ccc3c2OC(F)(F)O3)cc(N)c1Cl"
readout_name = "pest or weed control at 140 g/ha"
result = "0 to 29%"

[[record]]
structure_smiles_string = "COC(=O)c1nc(-c2cccc3c2OCC3)c(F)c(N)c1Cl"
readout_name = "pest or weed control at 140 g/ha"
result = "0 to 29%"


Give Key Grass and Sedge Weeds as well as Grass Crops pest or weed control at 140 g/ha for `Nc1c(F)c(-c2ccc(Cl)c3c2OC(F)(F)O3)nc(C(=O)O)c1Cl`
0 to 29%

Provide value of pest or weed control at 140 g/ha for this record tested with Key Grass and Sedge Weeds as well as Grass Crops: `Nc1cc(-c2c(F)ccc3c2OC(F)(F)O3)nc(C(=O)O)c1Cl`
0 to 29%

For Key Grass and Sedge Weeds as well as Grass Crops, provide pest or weed control at 140 g/ha of `Nc1c(F)c(-c2ccc3c(c2)COC3)nc(C(=O)O)c1Cl` please.
0 to 29%

GET /values?readout=pest or weed control at 140 g/ha&system=Key Grass and Sedge Weeds as well as Grass Crops&item= `COC(=O)c1nc(-c2ccc(F)c3c2OC(F)(F)O3)cc(N)c1Cl`
0 to 29%

---

- System: Wheat and Barley and weed species
- PROTOCOL TEXT: Post-Emergent Test III: postemergent herbicidal activity in wheat and barley, visual rating after 21 d and probit GR20/GR50/GR80/GR90 (Tables 9-13)
- Format: in vivo
- CONDITION PARAMETERS: KCHSC kochia (Kochia scoparia); 35 g ai/ha
READOUT NAME: Visual Growth Reduction (%) 21 Days After Application KCHSC

[[record]]
structure_smiles_string = "COC(=O)c1nc(-c2ccc3c(c2F)OC(F)(F)O3)c(F)c(N)c1Cl"
result = "G (0-29)"

[[record]]
structure_smiles_string = "COC(=O)c1nc(-c2cc3c(cc2F)OC(F)(F)O3)c(F)c(N)c1Cl"
result = "G (0-29)"


---

- Tested on: Wheat and Barley and weed species
- PROTOCOL TEXT: Post-Emergent Test III: postemergent herbicidal activity in wheat and barley, visual rating after 21 d and probit GR20/GR50/GR80/GR90 (Tables 9-13)
- Type: in vivo
- CONDITION PARAMETERS: MATCH wild chamomile (Matricaria recutita L.); 70 g ai/ha
READOUT NAME: Visual Growth Reduction (%) 21 Days After Application MATCH

[[record]]
structure_smiles_string = "COC(=O)c1nc(-c2ccc(Br)c3c2OC(F)(F)O3)c(F)c(N)c1Cl"
result = "E (45-59)"

[[record]]
structure_smiles_string = "Nc1c(F)c(-c2ccc3c(c2F)OC(F)(F)O3)nc(C(=O)O)c1Cl"
result = "E (45-59)"


---

- Tested on: Direct Seeded Rice and weed species
- PROTOCOL TEXT: Postemergence herbicidal activity in direct seeded rice, visual rating after 20-22 days and probit GR20/GR50/GR80/GR90 (Table 14)
- Type: in vivo
- CONDITION PARAMETERS: post-emergence, 504 h; ORYSK (Oryza sativa, rice crop); 17.5 g ai/ha; postemergence; read-out: Visual Growth Reduction (%) 21 Days After Application ORYSK
- Experimental: Herbicidal evaluations were made visually on a scale of 0 to 100 where 0 represents no activity and 100 represents complete plant death. […] A weighed amount, determined by the highest rate to be tested, of each test compound was placed in 25 mL glass vials and dissolved in a volume of 97:3 v/v acetone-DMSO to obtain 12× stock solutions. […]
READOUT NAME: pest or weed control at 17.5 g/ha

Field: example entries. Status: answers known.
[[record]]
structure_smiles_string = "COC(=O)c1nc(-c2ccc3c(c2F)OC(F)(F)O3)c(F)c(N)c1Cl"
assay_system = "Direct Seeded Rice and weed species"
result = "0 to 29%"

[[record]]
structure_smiles_string = "Nc1cc(-c2cc3c(cc2F)OC(F)(F)O3)nc(C(=O)O)c1Cl"
assay_system = "Direct Seeded Rice and weed species"
result = "60 to 74%"

[[record]]
structure_smiles_string = "Nc1c(F)c(-c2ccc3c(c2F)OC(F)(F)O3)nc(C(=O)O)c1Cl"
assay_system = "Direct Seeded Rice and weed species"
result = "45 to 59%"

[[record]]
structure_smiles_string = "COc1c(C(=O)O)nc(-c2ccc3c(c2)OC(F)(F)O3)c(F)c1N"
assay_system = "Direct Seeded Rice and weed species"
result = "85 to 94%"

[[record]]
structure_smiles_string = "COc1c(N)nc(-c2ccc3c(c2F)OC(F)(F)O3)nc1C(=O)O"
assay_system = "Direct Seeded Rice and weed species"
result = "30 to 44%"


Which pest or weed control at 17.5 g/ha reading was recorded for the compound `COC(=O)c1nc(-c2ccc3c(c2F)OC(F)(F)O3)cc(N)c1Cl` ?
0 to 29%

Recorded pest or weed control at 17.5 g/ha of `Nc1cc(-c2ccc3c(c2F)OC(F)(F)O3)nc(C(=O)O)c1Cl` , please.
60 to 74%

Find the recorded pest or weed control at 17.5 g/ha belonging to `Nc1c(F)c(-c2cc3c(cc2F)OC(F)(F)O3)nc(C(=O)O)c1Cl` and report it.
0 to 29%
